B1: KRT34 (parent)
chain: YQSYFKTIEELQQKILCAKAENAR

variants of: B1; assay: protein stability index of a GFP-peptide fusion (GPS, HEK-293T) (PSI 1-6); higher = more stable; details: c terminus: a fixed tail appended;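 also: lentivirally expressed fusions sorted by FACS into six bins by GFP to DsRed ratio, PSI derived from sequencing read proportions per bin multiplied by bin number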
readout.label: protein stability index
Answers are plain numbers.

A20D: 2.18
Q12M: 2.15
K6P: 1.81
C17Q: 2.56

# map each variant to its protein stability index
1. Q2Y
2. I15E
3. Q2M
4. L11V
5. Q2I
6. T7H
7. C17N

1. 2.04
2. 2.03
3. 2.14
4. 1.35
5. 1.57
6. 2.35
7. 1.88

# map each variant to its protein stability index
1. Q2C
2. E21Y
3. K19D
4. L16F
5. E21V
6. Q2T
7. Q13K
8. C17H

1.88
1.27
2.48
1.6
2.42
1.59
1.95
2.06

# map each variant to its protein stability index
1. K14S
2. R24E
3. L16M
4. A18Y
5. Q13L
6. A18K

[2.27, 1.32, 1.89, 2.16, 1.46, 1.99]

# map each variant to its protein stability index
1. Q13I
2. Q12N

[1.5, 1.65]

# map each variant to its protein stability index
1. K14W
2. Q12C
3. I8D
4. N22P
5. Q12S
6. Y4A
7. L11C

3.3
1.78
2.59
1.89
1.77
2.2
2.56

# map each variant to its protein stability index
1. Q13E
2. F5W
3. A23Q
4. K14F
5. Y4F

[2.2, 1.32, 2.17, 2, 1.86]

# map each variant to its protein stability index
1. R24K
2. F5T

1.93
2.12
